B1: CPEB3 Ribozyme (parent)
chain: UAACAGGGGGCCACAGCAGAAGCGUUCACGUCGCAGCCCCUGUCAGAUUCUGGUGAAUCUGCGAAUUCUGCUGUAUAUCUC

Variants of: B1
Procedure text: self-cleavage, relative activity (ratio to wild type); higher = more cleavage; in vitro, sequencing
Everything with self-cleavage lower than 0.3 is no (0); everything else, including exactly 0.3, is yes (1).

Previously resolved entries follow.
>  <Sequence variant>
G24A A45G

>  <Cat>
no (0)

$$$$
>  <Sequence variant>
A21C C38U

>  <Cat>
no (0)

$$$$

Lookup: Is self-cleavage for G24C U54A at or above 0.3?
Found: no (0)

Lookup: Is self-cleavage for G7C U48C at or above 0.3?
Found: yes (1)

Lookup: Is self-cleavage for C34A G70C at or above 0.3?
Found: no (0)
